Numbers sourced from patent US20230265208A1.

Provide the recorded FACS titration signal for the entries that follow.
molecular target: MUC1 on HCT116/MUC1 cells (human, UniProt P15941 24-1255); assay: flow cytometry on HCT116/MUC1 cells; antibody at 300 nM
Sequence (P15941 24-1097, chain 1 of 2): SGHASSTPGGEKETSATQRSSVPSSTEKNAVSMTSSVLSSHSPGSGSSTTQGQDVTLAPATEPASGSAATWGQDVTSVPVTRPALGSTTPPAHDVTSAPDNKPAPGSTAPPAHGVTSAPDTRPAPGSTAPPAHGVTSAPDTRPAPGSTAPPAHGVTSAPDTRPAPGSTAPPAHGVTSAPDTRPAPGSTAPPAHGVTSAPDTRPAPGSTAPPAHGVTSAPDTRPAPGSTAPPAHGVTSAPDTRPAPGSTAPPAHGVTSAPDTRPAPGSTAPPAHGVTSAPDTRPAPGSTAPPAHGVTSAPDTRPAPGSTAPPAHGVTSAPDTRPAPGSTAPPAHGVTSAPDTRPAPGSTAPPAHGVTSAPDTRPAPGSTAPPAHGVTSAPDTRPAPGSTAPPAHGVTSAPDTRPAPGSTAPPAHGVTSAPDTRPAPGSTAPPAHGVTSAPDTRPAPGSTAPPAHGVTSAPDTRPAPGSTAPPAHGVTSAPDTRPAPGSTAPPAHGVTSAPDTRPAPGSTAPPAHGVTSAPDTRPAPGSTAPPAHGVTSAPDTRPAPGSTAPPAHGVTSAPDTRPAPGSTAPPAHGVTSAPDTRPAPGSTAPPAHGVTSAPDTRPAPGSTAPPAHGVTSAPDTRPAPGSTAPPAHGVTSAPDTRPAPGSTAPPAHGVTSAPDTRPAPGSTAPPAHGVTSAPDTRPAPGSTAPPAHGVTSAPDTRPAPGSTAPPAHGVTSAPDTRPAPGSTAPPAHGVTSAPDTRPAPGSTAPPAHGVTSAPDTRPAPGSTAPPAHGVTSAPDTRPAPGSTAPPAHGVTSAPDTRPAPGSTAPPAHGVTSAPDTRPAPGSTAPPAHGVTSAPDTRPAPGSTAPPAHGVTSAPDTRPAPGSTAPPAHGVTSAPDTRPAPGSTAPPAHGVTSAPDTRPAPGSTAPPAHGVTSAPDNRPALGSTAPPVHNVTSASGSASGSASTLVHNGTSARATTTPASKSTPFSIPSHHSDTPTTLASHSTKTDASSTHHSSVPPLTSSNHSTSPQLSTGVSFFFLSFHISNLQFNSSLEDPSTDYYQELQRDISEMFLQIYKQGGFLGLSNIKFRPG
Sequence (P15941 1098-1255, chain 2 of 2): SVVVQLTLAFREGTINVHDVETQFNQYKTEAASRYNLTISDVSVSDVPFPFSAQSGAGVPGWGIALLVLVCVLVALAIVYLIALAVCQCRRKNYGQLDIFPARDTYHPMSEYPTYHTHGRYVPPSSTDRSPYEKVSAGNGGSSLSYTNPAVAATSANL
One number for each entry.

Below: 3 binders and their reported FACS titration signal.
VH1 + VL3 (antibody, V domains shown) VH: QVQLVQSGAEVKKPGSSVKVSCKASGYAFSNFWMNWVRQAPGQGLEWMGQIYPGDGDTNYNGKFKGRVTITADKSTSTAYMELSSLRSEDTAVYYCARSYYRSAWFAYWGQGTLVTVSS VL: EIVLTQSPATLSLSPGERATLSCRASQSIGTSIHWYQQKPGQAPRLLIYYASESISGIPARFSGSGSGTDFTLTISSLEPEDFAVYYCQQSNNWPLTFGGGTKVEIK = 42
VH5 + VL2 (antibody, V domains shown) VH: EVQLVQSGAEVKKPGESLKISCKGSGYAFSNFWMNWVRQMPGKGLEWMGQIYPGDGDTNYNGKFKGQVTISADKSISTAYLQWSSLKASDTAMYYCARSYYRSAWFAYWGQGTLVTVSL VL: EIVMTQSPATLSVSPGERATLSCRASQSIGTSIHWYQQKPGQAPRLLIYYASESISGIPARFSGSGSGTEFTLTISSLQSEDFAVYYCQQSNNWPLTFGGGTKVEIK = 46.3
VH1 + VL4 (antibody, V domains shown) VH: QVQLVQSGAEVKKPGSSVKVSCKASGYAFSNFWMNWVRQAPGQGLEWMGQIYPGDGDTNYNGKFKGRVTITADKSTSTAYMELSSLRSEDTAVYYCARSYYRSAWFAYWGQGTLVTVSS VL: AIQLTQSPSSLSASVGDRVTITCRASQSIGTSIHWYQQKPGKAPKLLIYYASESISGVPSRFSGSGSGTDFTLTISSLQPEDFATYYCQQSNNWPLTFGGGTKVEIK = 53.9

Next binder, FACS titration signal to be filled in.
Query block: What does the record list as FACS titration signal for VH2 + VL3 (antibody, V domains shown) VH: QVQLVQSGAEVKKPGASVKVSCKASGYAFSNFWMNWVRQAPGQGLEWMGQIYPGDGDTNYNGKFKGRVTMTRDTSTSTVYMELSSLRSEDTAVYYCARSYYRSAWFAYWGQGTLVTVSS VL: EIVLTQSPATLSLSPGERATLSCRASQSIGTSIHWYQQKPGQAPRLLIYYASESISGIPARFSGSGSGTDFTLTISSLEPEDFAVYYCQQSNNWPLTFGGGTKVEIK ?
Result block: 44.1
